Biological target: human σ2/TMEM97 receptor (Homo sapiens, UniProt Q5BJF2)
Sequence (Q5BJF2 whole entry): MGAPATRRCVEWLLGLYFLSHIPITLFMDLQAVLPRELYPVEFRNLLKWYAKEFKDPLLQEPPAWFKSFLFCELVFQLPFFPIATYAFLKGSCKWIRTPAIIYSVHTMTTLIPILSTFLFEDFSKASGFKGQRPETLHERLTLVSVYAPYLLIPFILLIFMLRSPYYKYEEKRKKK
Assay: Binding assay to human σ2/TMEM97 receptor ([3H]-DTG)
Conditions: transfected HEK-293 membranes, 10 nM [3H]-DTG, 25° C. 120 minutes; read-out: Binding σ-2
assayEndpoint: Ki

Here are 6 compounds together with their reported answers.
INSERT INTO assay_data (cpdsmiles, result) VALUES
  ('CCc1ncc(-c2cc(C)no2)c(C2CCN(CC(=O)N3CCCN(C)CC3)CC2)n1', '< 100 nM'),
  ('Cc1ccc(-c2ccnc(C)n2)c(C2CCN(CC(=O)N3CCOCC3)CC2)n1', '500 to 1000 nM'),
  ('CCc1ncc(-c2cccc(C)n2)c(C2CCN(CC(=O)N3CCOCC3)CC2)n1', '100 to 500 nM'),
  ('CCc1ncc(-c2nccn2C)c(C2CCN(CC(=O)N3CCOCC3)CC2)n1', '500 to 1000 nM'),
  ('Cc1cc(-c2cnc(C3CC3)nc2C2CCN(CC(=O)N3CCOCC3)CC2)on1', '< 100 nM'),
  ('CCc1ncc(-c2cc(C)no2)c([C@H]2CCCN(CC(=O)N3CCOCC3)CC2)n1', '< 100 nM');

q: Tell us which Ki value is on record for "CCc1ncc(-c2ccccn2)c(C2CCN(CC(=O)N3CCOCC3)CC2)n1"
a: 100 to 500 nM

q: Tell us which Ki value is on record for "CCc1ncc(-c2cc(C)no2)c(C2CCN(CC(=O)N3CCCCC3)CC2)n1"
a: < 100 nM

q: Tell us which Ki value is on record for "CCc1ncc(-c2cc(C)no2)c(C2CCN(CCN3CCOCC3)CC2)n1"
a: < 100 nM

q: Tell us which Ki value is on record for "CCCc1ncc(-c2cc(C)no2)c(C2CCN(CC(=O)N3CCOCC3)CC2)n1"
a: < 100 nM

q: Tell us which Ki value is on record for "CCc1ncc(-c2cc(C)no2)c(C2CCN(CCC(=O)N3CCOCC3)CC2)n1"
a: < 100 nM

q: Tell us which Ki value is on record for "CCc1ncc(-c2cc(C)no2)c(C2CCN(CC(=O)N3CCC4(CCOC4)CC3)CC2)n1"
a: < 100 nM

q: Tell us which Ki value is on record for "Cc1cc(-c2cnc(C(F)(F)F)nc2C2CCN(CC(=O)N3CCOCC3)CC2)on1"
a: < 100 nM
